Target: T1, macaca GM-CSF (Macaca mulatta (identical in Macaca …, UniProt Q0MUT8 18-144 (Chlorocebus aethiops entry), limits assumed))
T1 chain: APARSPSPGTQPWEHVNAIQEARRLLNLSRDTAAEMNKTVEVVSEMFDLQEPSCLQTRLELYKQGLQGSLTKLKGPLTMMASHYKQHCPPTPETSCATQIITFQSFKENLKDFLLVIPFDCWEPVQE
Assay: cell-based or functional assay
// Fold improvement of 4K21 H93Y alone on macaca (IC50, TF-1 proliferation) lookup, one value per entry
All answers are understood in fold, so give the number only.

1) MSB0010599 4K21 (4K21 hVH S55R-T62S hVL N28I-H34S-N53R-H93Y) (antibody, V domains shown, IgG) VH: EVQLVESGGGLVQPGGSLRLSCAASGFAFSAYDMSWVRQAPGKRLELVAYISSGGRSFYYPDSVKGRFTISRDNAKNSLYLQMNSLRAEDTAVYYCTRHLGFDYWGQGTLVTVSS VL: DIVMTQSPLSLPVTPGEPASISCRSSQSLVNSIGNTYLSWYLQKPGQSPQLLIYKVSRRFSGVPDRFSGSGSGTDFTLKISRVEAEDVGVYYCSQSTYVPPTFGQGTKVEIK : 1.8
2) MSB0010602 4K21 (4K21 hVH S55K-T62S hVL S27eY-N28I-H34S-N53R-H93Y) (antibody, V domains shown, IgG) VH: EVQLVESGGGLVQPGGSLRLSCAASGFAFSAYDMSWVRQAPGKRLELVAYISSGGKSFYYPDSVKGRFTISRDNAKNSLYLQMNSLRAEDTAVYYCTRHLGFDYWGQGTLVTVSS VL: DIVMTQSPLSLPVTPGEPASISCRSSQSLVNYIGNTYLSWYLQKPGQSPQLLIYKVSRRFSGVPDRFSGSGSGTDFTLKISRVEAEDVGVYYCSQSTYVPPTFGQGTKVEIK : 4
3) humanized parental 4K21 hVH hVL + H93Y (MS100305-A) (antibody, V domains shown) VH: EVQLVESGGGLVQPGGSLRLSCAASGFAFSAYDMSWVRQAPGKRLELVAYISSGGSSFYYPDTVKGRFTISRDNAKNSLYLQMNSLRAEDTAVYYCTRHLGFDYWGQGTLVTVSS VL: DIVMTQSPLSLPVTPGEPASISCRSSQSLVNSNGNTYLHWYLQKPGQSPQLLIYKVSNRFSGVPDRFSGSGSGTDFTLKISRVEAEDVGVYYCSQSTYVPPTFGQGTKVEIK : 1

Look up and state reported Fold improvement of 4K21 H93Y alone on macaca (IC50, TF-1 proliferation) for anti-GM-CSF 4K21 hIgG1K antibody (MSB0010259), recombinant chimeric 4K21 (antibody, V domains shown, Murine variable domains fused to human constant IgG1 heavy chain and kappa light chain domains) VH: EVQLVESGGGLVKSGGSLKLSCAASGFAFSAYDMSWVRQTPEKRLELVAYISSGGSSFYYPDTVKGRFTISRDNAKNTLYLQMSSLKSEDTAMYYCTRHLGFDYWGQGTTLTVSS VL: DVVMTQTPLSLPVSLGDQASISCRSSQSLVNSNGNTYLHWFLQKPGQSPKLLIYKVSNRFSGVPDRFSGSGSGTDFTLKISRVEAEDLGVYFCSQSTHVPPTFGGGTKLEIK
0.1

Provide one value: measured Fold improvement of 4K21 H93Y alone on macaca (IC50, TF-1 proliferation) of MSB0010601 4K21 (4K21 hVH S55K-T62S hVL N28I-H34S-N53R-H93Y) (antibody, V domains shown, IgG; also called optimized 4K21 antibody) VH: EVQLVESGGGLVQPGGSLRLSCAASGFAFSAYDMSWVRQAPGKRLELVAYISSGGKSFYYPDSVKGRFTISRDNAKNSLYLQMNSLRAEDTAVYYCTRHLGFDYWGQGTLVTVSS VL: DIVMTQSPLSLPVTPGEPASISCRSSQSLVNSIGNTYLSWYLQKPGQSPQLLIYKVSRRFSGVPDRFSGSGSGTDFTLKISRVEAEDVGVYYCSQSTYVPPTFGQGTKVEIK
1.8

Identify measured Fold improvement of 4K21 H93Y alone on macaca (IC50, TF-1 proliferation) corresponding to MSB0010603 4K21 (4K21 hVH S56V-T62S hVL N28I-H34S-N53R-H93Y) (antibody, V domains shown, IgG) VH: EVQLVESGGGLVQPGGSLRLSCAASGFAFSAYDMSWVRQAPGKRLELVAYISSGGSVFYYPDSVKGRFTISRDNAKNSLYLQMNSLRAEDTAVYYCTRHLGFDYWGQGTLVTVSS VL: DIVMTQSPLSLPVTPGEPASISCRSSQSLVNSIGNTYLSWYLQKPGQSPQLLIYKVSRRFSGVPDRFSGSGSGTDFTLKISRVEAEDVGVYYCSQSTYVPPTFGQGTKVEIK
1.2

Return value of Fold improvement of 4K21 H93Y alone on macaca (IC50, TF-1 proliferation) for input humanized parental anti-GM-CSF 4K21 VH3-07.1AL+VK2-A3.2 hIgG1K antibody (MSB0010439) (antibody, V domains shown, Human IgG1 kappa; also called humanized parental 4K21 hVH hVL; parental 4K21) VH: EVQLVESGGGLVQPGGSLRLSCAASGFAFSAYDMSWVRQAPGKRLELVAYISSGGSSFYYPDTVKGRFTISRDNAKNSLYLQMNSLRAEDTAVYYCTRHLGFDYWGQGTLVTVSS VL: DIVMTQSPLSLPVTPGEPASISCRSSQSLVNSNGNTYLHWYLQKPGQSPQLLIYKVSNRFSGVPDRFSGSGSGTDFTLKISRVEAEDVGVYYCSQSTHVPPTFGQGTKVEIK , no commentary.
0.1
